Collected Target selectivity PR/GR values appear next to each entry.
Biological target: progesterone receptor (PR) (Homo sapiens)
Sequence (P06401 678-933): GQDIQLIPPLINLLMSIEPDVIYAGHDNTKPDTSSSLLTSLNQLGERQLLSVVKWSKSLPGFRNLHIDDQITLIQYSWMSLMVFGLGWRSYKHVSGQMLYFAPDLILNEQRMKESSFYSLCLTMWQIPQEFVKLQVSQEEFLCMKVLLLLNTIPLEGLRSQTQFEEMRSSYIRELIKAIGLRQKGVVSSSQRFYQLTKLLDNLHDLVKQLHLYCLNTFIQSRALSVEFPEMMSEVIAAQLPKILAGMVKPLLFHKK
Test: Assay for agonist activity on progesterone receptor (luciferase reporter, HEK293 cells transfected with pBIND-PR plasmid)
Assay type: cell-based
Settings: ratio of EC50 values

Sample records with Target selectivity PR/GR:
{"columns": ["compound", "recorded-value"],
 "data": [
  ["C[C@]12C=CC(=O)C=C1[C@@H](F)C[C@H]1[C@@H]3C[C@H]4OC(c5ccc(COC6CCOC6=O)cc5F)O[C@@]4(C(=O)CO)[C@@]3(C)C[C@H](O)[C@@]12F (some centres unmarked) [Compound 7]", "> 4.1×10^4"],
  ["C[C@]12C=CC(=O)C=C1CC[C@H]1[C@@H]3C[C@H]4OC(c5ccc(COC6CCOC6=O)cc5)O[C@@]4(C(=O)CO)[C@@]3(C)C[C@H](O)[C@@]12Cl (some centres unmarked) [Compound 22]", "> 9.1×10^4"],
  ["C[C@]12C=CC(=O)C=C1[C@@H](F)C[C@H]1[C@@H]3C[C@H]4OC(c5ccc(CSC6CCOC6=O)cc5)O[C@@]4(C(=O)SCC#N)[C@@]3(C)C[C@H](O)[C@@]12F (some centres unmarked) [Compound 35]", "> 2.4×10^5"],
  ["C[C@]12C=CC(=O)C=C1CC[C@H]1[C@@H]3C[C@H]4OC(c5ccc(CSC6CCOC6=O)cc5)O[C@@]4(C(=O)CCl)[C@@]3(C)C[C@H](O)[C@@]12Cl (some centres unmarked) [Compound 38]", "> 4.5×10^5"]
]}

Next item in the queue.
input: Query (compound): C[C@]12C=CC(=O)C=C1CC[C@H]1[C@@H]3C[C@H]4OC(C5CCC(SC6CCOC6=O)CC5)O[C@@]4(C(=O)CO)[C@@]3(C)C[C@H](O)[C@@]12F (some centres unmarked) [Compound 45] ; field requested: Target selectivity PR/GR
output: > 3.1×10^4
